# tested-on: USP28 (USP28-5(1-1077)-TEV-6*His; LifeSensors) (Homo sapiens, UniProt Q96RU2)
# Construct: construct USP28 (USP28-5(1-1077)-TEV-6*His; LifeSensors); TEV cleavage site (C); 6xHis (C); purchased LifeSensors
# Sequence (Q96RU2 whole entry): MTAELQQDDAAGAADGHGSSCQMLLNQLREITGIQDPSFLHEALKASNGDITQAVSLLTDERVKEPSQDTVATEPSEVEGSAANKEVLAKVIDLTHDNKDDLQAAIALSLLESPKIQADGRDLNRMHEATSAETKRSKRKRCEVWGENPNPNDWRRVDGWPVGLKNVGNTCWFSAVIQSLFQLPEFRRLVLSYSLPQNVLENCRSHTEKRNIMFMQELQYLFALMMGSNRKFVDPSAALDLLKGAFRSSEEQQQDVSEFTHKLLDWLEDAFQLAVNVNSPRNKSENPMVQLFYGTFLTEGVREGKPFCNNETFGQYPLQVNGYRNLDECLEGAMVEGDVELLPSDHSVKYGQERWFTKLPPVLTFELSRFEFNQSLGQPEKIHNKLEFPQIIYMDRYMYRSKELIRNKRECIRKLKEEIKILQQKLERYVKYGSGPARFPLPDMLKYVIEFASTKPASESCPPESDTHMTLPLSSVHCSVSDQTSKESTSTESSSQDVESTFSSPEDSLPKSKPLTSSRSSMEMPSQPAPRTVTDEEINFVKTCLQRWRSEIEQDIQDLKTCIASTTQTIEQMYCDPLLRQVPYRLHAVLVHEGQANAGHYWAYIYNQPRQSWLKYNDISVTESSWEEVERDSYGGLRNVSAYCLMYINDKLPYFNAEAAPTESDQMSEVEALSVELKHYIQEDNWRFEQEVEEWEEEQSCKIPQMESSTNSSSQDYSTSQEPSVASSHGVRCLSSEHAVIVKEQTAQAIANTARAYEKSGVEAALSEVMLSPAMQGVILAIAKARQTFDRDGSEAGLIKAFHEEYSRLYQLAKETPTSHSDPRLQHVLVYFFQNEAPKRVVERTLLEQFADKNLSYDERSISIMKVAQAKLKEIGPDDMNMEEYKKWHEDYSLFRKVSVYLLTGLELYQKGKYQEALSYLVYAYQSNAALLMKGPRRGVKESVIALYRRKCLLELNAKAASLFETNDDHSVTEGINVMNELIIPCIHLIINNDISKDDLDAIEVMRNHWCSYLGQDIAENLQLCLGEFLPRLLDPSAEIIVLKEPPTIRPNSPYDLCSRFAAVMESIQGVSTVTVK
# test-description: Ubiquitin-Rhodamine 110 Assay for USP28 Activity, Example A-1(b)
# Assay type: biochemical
# study-conditions: Ubiquitin-Rhodamine 110 assay, Example A-1(b)

{"compound": "Cc1cnc2c(N)c(C(=O)N[C@H]3CCc4cc(N5CCNCC5)ccc4C3)sc2n1 (single isomer, unassigned)", "USP28 A-1(b) IC50 range": "++ (0.2-2 μM)"}
{"compound": "Cc1cc(C)c2c(N)c(C(=O)N[C@H]3COc4cc(N5CCNCC5)cc(F)c4C3)sc2n1", "USP28 A-1(b) IC50 range": "+++ (0.05-0.2 μM)"}
{"compound": "Cc1cnc2c(N)c(C(=O)N[C@H]3COc4cc(N5CC6CC(C5)N6)cc(F)c4C3)sc2n1", "USP28 A-1(b) IC50 range": "+++ (0.05-0.2 μM)"}
{"compound": "O=C(N[C@H]1COc2cc(N3CCNCC3)ccc2C1)c1ccc(NCc2ccccc2)nc1", "USP28 A-1(b) IC50 range": "+ (>2 μM)"}
{"compound": "Cc1ccc2c(N)c(C(=O)N[C@H]3COc4cc(N5CCNCC5)ccc4[C@@H]3C)sc2n1 (single isomer, unassigned)", "USP28 A-1(b) IC50 range": "+ (>2 μM)"}
{"compound": "C[C@H]1CCc2cc(C(=O)N[C@H]3COc4cc(N5CC6CCC(C5)N6)ccc4C3)cnc2N1", "USP28 A-1(b) IC50 range": "+ (>2 μM)"}
{"compound": "Cc1cnc2c(N)c(C(=O)N[C@H]3CCc4cc(N5CCNC[C@@H](O)C5)ccc4C3)sc2n1 (single isomer, unassigned)", "USP28 A-1(b) IC50 range": "++ (0.2-2 μM)"}
{"compound": "CCn1ccc2cc(C(=O)N[C@@H]3CCc4cc(N5CC6CCC(C5)N6)ccc4C3)cnc21 (single isomer, unassigned)", "USP28 A-1(b) IC50 range": "++ (0.2-2 μM)"}
{"compound": "CN[C@@H]1CCN(c2ccc3c(c2)CC[C@H](NC(=O)c2sc4nc(C)cnc4c2N)C3)C1 (single isomer, unassigned)", "USP28 A-1(b) IC50 range": "++ (0.2-2 μM)"}
{"compound": "Cc1ccc2c(N)c(C(=O)N[C@H]3CCc4cc(N5CC6CCC(C5)N6)ccc4C3)sc2n1", "USP28 A-1(b) IC50 range": "+++ (0.05-0.2 μM)"}
{"compound": "Cc1cnc2c(N)c(C(=O)N[C@@H]3CCc4cc(N5CCNC[C@@H](O)C5)ccc4C3)sc2n1 (single isomer, unassigned)", "USP28 A-1(b) IC50 range": "++ (0.2-2 μM)"}
{"compound": "Cc1ccc2c(N)c(C(=O)N[C@H]3CCc4cc(N5CCN[C@@H](CO)C5)ccc4C3)sc2n1 (single isomer, unassigned)", "USP28 A-1(b) IC50 range": "+ (>2 μM)"}
{"compound": "Cc1ccc2c(N)c(C(=O)N[C@H]3COc4cc(N5C[C@H](N)[C@@H](F)C5)ccc4C3)sc2n1", "USP28 A-1(b) IC50 range": "++ (0.2-2 μM)"}
{"compound": "C[C@@H](Nc1ccc(C(=O)N[C@H]2COc3cc(N4CCNCC4)ccc3C2)cn1)c1ccccc1", "USP28 A-1(b) IC50 range": "+ (>2 μM)"}
